For each of the compounds below, state its GI50.
system: HL-60; experiment: NCI tumour cell line growth inhibition, 48 h
Activity calls are given as the source filed them. No stated cut-off is given here; in the data, active = GI50 up to about 1.1 µM and inactive = higher.

What reported GI50 corresponds to Brc1nc2c3ccccc3ncn2c1Br on HL-60?
22.5 µM (inactive)

What reported GI50 corresponds to O=C1CCCSC(=O)N1Cc1ccccc1 on HL-60?
> 100 µM (inactive)

What reported GI50 corresponds to CC1CCC2(OCCO2)[C@]2(C)CC(O)C(=O)C=C12 (stereo partly specified) on HL-60?
> 100 µM (inactive)

What reported GI50 corresponds to CCC(CC)C(=O)OC[n+]1ccc(-c2c(COC(=O)NC(C)C)c(COC(=O)NC(C)C)c3n2CCC3)cc1 on HL-60?
> 100 µM (inactive)

What reported GI50 corresponds to CCN1CCC(O)(/C=C/c2ccc(C(C)C)cc2)C(C(=O)/C=C/c2ccc(C(C)C)cc2)C1 (stereo unspecified) on HL-60?
2.98 µM (inactive)

What reported GI50 corresponds to Cc1nc(Nc2ccc(F)cc2)c2sc(=S)n(-c3ccc(F)cc3)c2n1 on HL-60?
23.6 µM (inactive)

---

For each of the compounds below, state its GI50.
tested on: MCF7; assay: NCI tumour cell line growth inhibition, 48 h
Activity calls are given as the source filed them. No stated cut-off is given here; in the data, active = GI50 up to about 1.1 µM and inactive = higher.

Please report the recorded GI50 for CN(C)Cc1cc(C(=O)O)cc(CN(C)C)c1O .
> 100 µM (inactive)

Please report the recorded GI50 for CCOC(=O)c1csc(NC(=O)C(C)N2CCCC2)n1 (stereo not given) .
> 100 µM (inactive)

Please report the recorded GI50 for COc1ccc(OC)c2sc(N3C(=O)/C(=C/c4ccc(N(C)C)cc4)N=C3c3ccccc3)nc12 .
22.3 µM (inactive)

Please report the recorded GI50 for Cc1nc2ccc(S(=O)(=O)NS(=O)(=O)c3ccc(-c4ccccc4)cc3)cc2c(=O)n1NS(=O)(=O)c1ccc(-c2ccccc2)cc1 .
> 100 µM (inactive)

Please report the recorded GI50 for COc1cccc(C2c3cc4c(cc3OC(N3CCCCC3)C2C)OCO4)c1O (stereo not given) .
5.6 µM (inactive)

Please report the recorded GI50 for CSc1nc2cc(S(=O)(=O)N3CCCCC3)ccc2s1 .
> 100 µM (inactive)

Please report the recorded GI50 for COc1cccc(/C=N/n2c(Cc3ccccc3)n[nH]c2=O)c1 .
> 100 µM (inactive)

Please report the recorded GI50 for S=C(Nc1ccc2cn[nH]c2c1)Nc1ccc2cn[nH]c2c1 .
82 µM (inactive)

Please report the recorded GI50 for C=C(C)c1cc(C(C)(C)C)cc(C(=C)C)c1S(C)(=O)=O .
> 100 µM (inactive)

Please report the recorded GI50 for CCn1c(=O)c2c3cc(OC(C)=O)ccc3oc2c2ccc(OC(C)=O)cc21 .
35 µM (inactive)

---

test system: SN12C; test: NCI tumour cell line growth inhibition, 48 h
Activity calls are given as the source filed them. Rule as the data show it: active = GI50 up to about 1.1 µM and inactive = higher.
Pick from T for active, F for inactive when you respond.

Query: recorded result category for NS(=O)(=O)c1nnc(NC(=O)C23CC4CC(CC(C4)C2)C3)s1 in this test
F

Query: recorded result category for CCOC(=O)C1(C#N)C(C#N)(C#N)C1(C#N)C#N in this test
F

Query: recorded result category for O=S(=O)(O)C(CO)c1ccccc1.O=S(=O)(O)Cc1ccccc1 (stereo not drawn) in this test
F

Query: recorded result category for CC(NNC(=O)c1ccncc1)c1ccccc1 (stereo not drawn) in this test
F

Query: recorded result category for COc1ccccc1CC(C)N (stereo not drawn) in this test
F

Query: recorded result category for Cc1cccc(C)c1NC(=O)CCC(=O)NNC(=O)c1cc(O)c2ccccc2c1 in this test
F

Query: recorded result category for C/C(=N\NC(=S)N1CC2CCC(CC2)C1)c1cccc(C)n1 in this test
T

Query: recorded result category for Brc1nc2c3ccccc3ncn2c1Br in this test
F

Query: recorded result category for NC(CSSCC(N)Cc1ccccc1)Cc1ccccc1 (stereo not drawn) in this test
F

Query: recorded result category for CC(C)(C)C(=O)c1c(O)c2ccccc2c2ccccc2c1=O in this test
F

Query: recorded result category for C/C(CC(O)(C(F)(F)F)C(F)(F)F)=N\NC(N)=O in this test
F

Query: recorded result category for O=c1cnn(C2OC(CO)C(O)C(F)C2O)c(=O)[nH]1 (stereo not drawn) in this test
F

Query: recorded result category for O=C1c2cc3c(cc2CC12Cc1cc4c(cc1C2)CCC4)CCC3 in this test
F

Query: recorded result category for CNC(=O)CCC(NC(=O)OC(C)(C)C)C(=O)NC(Cc1ccc(NC(=O)CCCCC(C)=O)cc1)C(=O)NCC(=O)NC (stereo not drawn) in this test
F

Query: recorded result category for C/C(=N/NC(=O)CC(=O)N(C(=O)c1ccccc1Cl)c1ccc(C)cc1)c1cc2ccccc2oc1=O in this test
F

Query: recorded result category for CCOC(=O)C(=C=C=C(c1ccccc1)c1ccccc1)C(=O)OCC in this test
F

Query: recorded result category for COC(=O)C1=C(OC(=O)/C=C/c2ccc(Cl)cc2)C(C(=O)OC)[C@]2(O)[C@@H](C(=O)OC)[C@H]1C[C@@H](c1ccccc1)[C@@H]2C(=O)OC (stereo partly drawn) in this test
F

Query: recorded result category for COc1cccc(N2C(=O)[C@H]3[C@H]4CC(C(C)(C)C)CC[C@H]4c4c([nH]c5ccccc45)[C@H]3C2=O)c1 (stereo partly drawn) in this test
F

Query: recorded result category for CCN(CC)CCC(=O)Nc1ccc2c(c1)C(=O)c1ccc(NC(=O)CCN(CC)CC)cc1C2=O in this test
F

Query: recorded result category for CC(=O)CCC1(c2ccccc2)OC(=O)C(C#N)=C1c1ccccc1 (stereo not drawn) in this test
F

Query: recorded result category for CC(=O)C(C(C)=O)=C1CCCC(O)O1 (stereo not drawn) in this test
F

Query: recorded result category for CC(C)Cc1c(C#N)c(C#N)c(N)n1Cc1ccccc1 in this test
F

Query: recorded result category for CC(=O)Nc1ccc(NS(=O)(=O)c2ccc3nc(C)n(NS(=O)(=O)c4ccc(NC(C)=O)cc4)c(=O)c3c2)cc1 in this test
F

---

test system: KM-20L2; assay: NCI tumour cell line growth inhibition, 48 h
The source made the active and inactive calls. No stated cut-off is given here; in the data, active = GI50 up to about 1.1 µM and inactive = higher.
Pick from 1 = active, 0 = inactive when you respond.

Query: recorded result category for Cc1ccc(Nc2nc3c(s2)C(=O)c2ccccc2C3=O)cc1 in this test
0

Query: recorded result category for COC(=O)/C(C#N)=C1\CCC(Nc2cccc(C(F)(F)F)c2)N1C (centres undefined) in this test
0

Query: recorded result category for NC(CSSCC(N)Cc1ccccc1)Cc1ccccc1 (centres undefined) in this test
0

Query: recorded result category for Nc1nc(O)c2ncn(C3OC(CO)C(O)C3O)c2n1 (centres undefined) in this test
0

Query: recorded result category for CC1NCCc2c1[nH]c1cc(O)ccc21 (centres undefined) in this test
0

Query: recorded result category for COc1ccc(CC2NCCc3c2[nH]c2ccccc32)cc1 (centres undefined) in this test
0

Query: recorded result category for CC[C@@]1(O)CC(OC2CC(N3CCOCC3)C(O)C(C)O2)c2c(O)c3c(c(O)c2[C@H]1O)C(=O)c1cccc(O)c1C3=O (some centres undefined) in this test
1

Query: recorded result category for CC(=O)Oc1ccc(O)c(O)c1C/C=C(\C)CC/C=C(\C)CC/C=C(\C)CCC=C(C)C in this test
1

Query: recorded result category for C=C1C(=O)C23C(O)C1CC[C@H]2C12CCCC(C)(COC(C)=O)[C@H]1[C@H](O)[C@]3(O)OC2 (some centres undefined) in this test
0

Query: recorded result category for C/C(CN1C(=O)c2ccccc2C1=O)=N\NS(=O)(=O)c1ccc(Cl)cc1 in this test
0

Query: recorded result category for COc1ccc(/C(Cl)=C(\C=O)c2ccc(Cl)c(Cl)c2)cc1 in this test
0

Query: recorded result category for Cc1ccc(NC(=O)C(=O)C2NC(=S)NC2=O)c([N+](=O)[O-])c1 (centres undefined) in this test
0

Query: recorded result category for O=C(Nc1ccc(/N=N/c2ccccc2)cc1)Sc1ccccc1C(=O)O in this test
0

Query: recorded result category for CCOC(=O)Nc1ccc(S(=O)(=O)I)cc1.CCOC(=O)Nc1ccc(S(=O)(=O)I)cc1.CN(C=O)C1=C(N(C)C=O)C(N(C)C=O)=C(N(C)C=O)C(=O)C1=O in this test
0

---

tested on: COLO 205; test: NCI tumour cell line growth inhibition, 48 h
Calls of active or inactive are those of the source. Cut-off read from the data, not from the text of the source: active = GI50 up to about 1.1 µM and inactive = higher.
Pick from 1 = active, 0 = inactive when you respond.

Query: recorded result category for CC(C)(CO[C@H]1C[C@H]2CC[C@@]1(C)C2(C)C)[N+](=O)[O-] in this test
0

Query: recorded result category for CC1=NNC(=O)C1C1CC(c2c[nH]c3ccccc23)=NNC1=S (stereo not given) in this test
0

Query: recorded result category for O=C(NO)C12C3C4C1C1C2C3C41C(=O)NO (stereo not given) in this test
0

Query: recorded result category for CCOP(=O)(OCC)C(Cc1cn(S(=O)(=O)c2ccc(C)cc2)cn1)C(=O)O (stereo not given) in this test
0

Query: recorded result category for CCC(=O)NCC1(c2c[nH]c3ccccc23)SCCS1 in this test
0

Query: recorded result category for N#CC1(C#N)C2C=CC(C3CC=CC32)C1(C#N)C#N (stereo not given) in this test
0

Query: recorded result category for COc1ccc(NC(=O)CC/C(CC(=O)c2ccco2)=N/NC(=O)C(N)=O)cc1 in this test
0

Query: recorded result category for CN(C)CCn1c(=O)c2ccc(NCCCN(C)CCCNc3ccc4c(=O)n(CCN(C)C)c(=O)n5c6ccccc6c(=O)c3c45)c3c(=O)c4ccccc4n(c1=O)c23 in this test
1

Query: recorded result category for NCCCCN(CCCN)C(=O)c1ccccc1 in this test
0

Query: recorded result category for O=C(O/C=C\OC1CCCC1(c1ccccc1)c1ccccc1)c1ccccc1 (stereo not given) in this test
0
